# Target: FPR2 (Homo sapiens)
# Construct: expressed in transfected cells; host or cells: RBL cells (RBL-FPR2)
# Sequence (P25090 whole entry, species assumed): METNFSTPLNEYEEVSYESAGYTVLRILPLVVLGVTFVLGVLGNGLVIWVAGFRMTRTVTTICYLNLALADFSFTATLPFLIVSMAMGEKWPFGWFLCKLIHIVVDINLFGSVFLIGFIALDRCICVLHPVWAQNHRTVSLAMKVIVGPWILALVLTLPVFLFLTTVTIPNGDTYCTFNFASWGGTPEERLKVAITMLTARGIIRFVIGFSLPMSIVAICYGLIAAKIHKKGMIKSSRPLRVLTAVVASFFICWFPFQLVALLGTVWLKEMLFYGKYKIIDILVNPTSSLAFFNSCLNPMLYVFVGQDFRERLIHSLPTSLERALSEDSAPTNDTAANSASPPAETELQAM
# Protocol summary: Change in calcium activity by peptide (Fura-2) in RBL cells overexpressing FPR2
# Assay type: cell-based
# Condition description: calcium activity (Fura-2), graded per Table 3, read-out: EC50 for [Ca^2+] FPR2
Peptide text beside a SMILES is read from it.
For each entry below, report its EC50 value.

Compound: CCCCCCCC(=O)N[C@@H](CCCCN)C(=O)N[C@@H](CCSC)C(=O)N[C@@H](CCCCN)C(=O)N[C@@H](Cc1ccc(O)cc1)C(=O)N[C@@H](CCCCN)C(=O)N[C@H](C(=O)N[C@H](CCSC)C(N)=O)C(C)C [Peptide 12] (HELM PEPTIDE1{[CCCCCCCC(=O)[*:2]].K.M.K.Y.K.V.[dM].[am]}$$$$V2.0)
EC50: 11 to 100 nM

Compound: CCCC(=O)N[C@@H](Cc1c[nH]cn1)C(=O)N[C@@H](CCCCN)C(=O)N[C@@H](Cc1ccc(O)cc1)C(=O)N[C@@H](Cc1c[nH]c2ccccc12)C(=O)N1CCC[C@H]1C(=O)N[C@H](CCSC)C(N)=O [Peptide 151] (HELM PEPTIDE1{[CCCC(=O)[*:2]].H.K.Y.W.P.[dM].[am]}$$$$V2.0)
EC50: < 10 nM

# input for lookup
Missing value: EC50, FPR2 (Homo sapiens), entry CSCC[C@@H](NC(=O)[C@@H]1CCCN1C(=O)[C@H](Cc1ccc(O)cc1)NC(=O)[C@H](Cc1ccc(O)cc1)NC(=O)[C@H](CCCNC(=N)N)NC(=O)[C@H](Cc1c[nH]c2ccccc12)NC(=O)[C@H](CCCNC(=N)N)NC(C)=O)C(N)=O [Peptide 121] (HELM PEPTIDE1{[ac].R.W.R.Y.Y.P.[dM].[am]}$$$$V2.0) . Fill in?
< 10 nM

The measured values listed here are drawn from patent US20250361268A1.
